Test system: THRa homodimer (NR concentration 90 nM)
Assay: PBM binding z-score (relative to random genomic background probes); higher = stronger binding; sequences stand for … in GC…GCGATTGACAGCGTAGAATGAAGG
// reported PBM binding z-score for each item listed
Measured Quantity: PBM binding z-score

item_sequence=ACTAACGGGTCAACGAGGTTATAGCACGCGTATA measured_quantity="PBM binding z-score" result_number=1.03
item_sequence=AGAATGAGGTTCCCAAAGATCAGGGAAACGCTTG measured_quantity="PBM binding z-score" result_number=-0.623
item_sequence=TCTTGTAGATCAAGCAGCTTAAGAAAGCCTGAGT measured_quantity="PBM binding z-score" result_number=-0.676
item_sequence=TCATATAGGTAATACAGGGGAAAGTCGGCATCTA measured_quantity="PBM binding z-score" result_number=0.385
item_sequence=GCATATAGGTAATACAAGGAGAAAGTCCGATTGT measured_quantity="PBM binding z-score" result_number=-0.606
item_sequence=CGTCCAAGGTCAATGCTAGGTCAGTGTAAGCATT measured_quantity="PBM binding z-score" result_number=2.75
item_sequence=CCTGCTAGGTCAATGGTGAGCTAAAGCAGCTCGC measured_quantity="PBM binding z-score" result_number=0.113
item_sequence=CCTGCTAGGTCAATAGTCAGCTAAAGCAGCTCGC measured_quantity="PBM binding z-score" result_number=0.258
item_sequence=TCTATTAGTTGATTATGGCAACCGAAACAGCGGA measured_quantity="PBM binding z-score" result_number=0.396
item_sequence=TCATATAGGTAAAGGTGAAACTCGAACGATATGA measured_quantity="PBM binding z-score" result_number=-0.601
item_sequence=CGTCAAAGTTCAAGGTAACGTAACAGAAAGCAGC measured_quantity="PBM binding z-score" result_number=1.32
item_sequence=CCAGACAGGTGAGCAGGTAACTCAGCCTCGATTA measured_quantity="PBM binding z-score" result_number=0.165
item_sequence=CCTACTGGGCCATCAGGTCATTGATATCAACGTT measured_quantity="PBM binding z-score" result_number=3.21
item_sequence=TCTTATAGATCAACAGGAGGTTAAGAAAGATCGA measured_quantity="PBM binding z-score" result_number=-0.19
item_sequence=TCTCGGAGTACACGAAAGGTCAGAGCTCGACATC measured_quantity="PBM binding z-score" result_number=0.15
item_sequence=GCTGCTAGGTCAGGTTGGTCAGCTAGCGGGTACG measured_quantity="PBM binding z-score" result_number=0.421
item_sequence=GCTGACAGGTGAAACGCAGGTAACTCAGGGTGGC measured_quantity="PBM binding z-score" result_number=-0.547
item_sequence=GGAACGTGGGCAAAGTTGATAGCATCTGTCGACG measured_quantity="PBM binding z-score" result_number=-0.838
item_sequence=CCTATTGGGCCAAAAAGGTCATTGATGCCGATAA measured_quantity="PBM binding z-score" result_number=0.389
item_sequence=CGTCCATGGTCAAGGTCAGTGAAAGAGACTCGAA measured_quantity="PBM binding z-score" result_number=1.79
item_sequence=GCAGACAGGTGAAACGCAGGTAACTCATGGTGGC measured_quantity="PBM binding z-score" result_number=-0.808
item_sequence=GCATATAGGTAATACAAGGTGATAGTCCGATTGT measured_quantity="PBM binding z-score" result_number=0.413
item_sequence=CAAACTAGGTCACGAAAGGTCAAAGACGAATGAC measured_quantity="PBM binding z-score" result_number=2.72
item_sequence=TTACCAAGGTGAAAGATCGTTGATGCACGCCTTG measured_quantity="PBM binding z-score" result_number=0.109
item_sequence=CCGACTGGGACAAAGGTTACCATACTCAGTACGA measured_quantity="PBM binding z-score" result_number=0.208
item_sequence=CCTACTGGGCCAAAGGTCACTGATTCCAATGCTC measured_quantity="PBM binding z-score" result_number=1.29
